# Assayed system: Human glucagon receptor (human, UniProt P47871 26-477)
# Test description: cell-based or functional assay
Where no end group is shown, it is not given here. [ ]: non-standard residue; d: D form. αMePhe(2-F) = C[C@](N)(Cc1ccccc1F)C(=O)O; Aib = CC(C)(N)C(=O)O
Metric name: cAMP production with saturated glucagon peptide; test compound '1 nM' (pmol/ml/µg prt)
One number for each entry, in pmol/ml/µg prt.

Here is how some binders turned out for cAMP production with saturated glucagon peptide; test compound '1 nM'.
For the binder HAQGTFTSD[Bip(OMe)][Bip(2F)] [Seq. ID. No. 11: HAQGTFTSD-Bip(OMe)-Bip(2F)] , what cAMP production with saturated glucagon peptide; test compound '1 nM' is on record?
2

Requested read-out: cAMP production with saturated glucagon peptide; test compound '1 nM'. Entry: H[Aib]QGTFTSD[Bip(OMe)][Bip(Pyr)] [Seq. ID. No. 14: H-Aib-QGTFTSD-Bip(OMe)-Bip(Pyr)]
3

# return cAMP production with saturated glucagon peptide; test compound '1 nM' for each item in the list
1. HXQGTXTSDXX (Aib at 2; α-Me-2F-Phe at 6; Bip(OMe) at 10; Bip(2F) at 11) [Seq. ID. No. 31: H-Aib-QGT-(α-Me-2F-Phe)-TSD-Bip(OMe)-Bip(2F)]
2. HAQGT[αMePhe(2-F)]TSD[Bip(OMe)][Bip(Pyr)] [Seq. ID. No. 26: HAQGT-(α-Me-2F-Phe)-TSD-Bip(OMe)-Bip(Pyr)]

[0, 4]

// each listed binder needs a value for cAMP production with saturated glucagon peptide; test compound '1 nM'
1. HSQGTFTSD[Bip(OMe)][Bip(2F)] (not fully specified (C-terminus); printed as HSQGTFTSD-Bip(OMe)-Bip(2F)) [Seq. ID. No. 7: HSQGTFTSD-Bip(OMe)-Bip(2F)]
2. HXQGTXTSDXX (not fully specified; ACP at 2; α-Me-2F-Phe at 6; Bip(OMe) at 10; Bip(2CF3) at 11) [Seq. ID. No. 36: H-(ACP)-QGT-(α-Me-2F-Phe)-TSD-Bip(OMe)-Bip(2CF3)]
3. HAQGT[αMePhe(2-F)]TSD[Bip(OMe)][Bip(2CF3)] [Seq. ID. No. 28: HAQGT-(α-Me-2F-Phe)-TSD-Bip(OMe)-Bip(2CF3)]

[0, 0, 0]

The values you see were collected from patent US20130225488A1.
